Assay: Human HepG2 cell viability assay in 384 well format
Assay type: toxicity, cell-based
Design: dose 125 nL, time 70.5 hour; concentration not given beside the values
Settings: HepG2 cells, read-out: Inhibition
Measure: cytotoxicity at 70.5 h (%)
Return type: number; implicit unit %.

Guide cases for cytotoxicity at 70.5 h, answers given:
- Compound: "Cc1nc(NC(=O)C2CCCN(C(=O)C3CC3)C2)sc1C (configuration not stated)"
  Endpoint result: -14.8
- Compound: "CN1CCN(Cc2ccncc2)C(=O)C12CCN(c1nccs1)CC2"
  Endpoint result: -2.86
- Compound: "COc1c(CC2CC(CO)=NO2)c(Br)c2c(c1OC)OCO2 (configuration not stated)"
  Endpoint result: -0.342
- Compound: "CC(C)CN1CCCn2nc(CNC(=O)Cc3cccc(O)c3)cc2C1"
  Endpoint result: -9.37
- Compound: "CC(c1nc(-c2cccnc2)no1)N(C)CCCOc1ccccc1 (configuration not stated)"
  Endpoint result: -3.8

// query Could you tell me which cytotoxicity at 70.5 h is on file for NS(=O)(=O)Cc1cccc(C(=O)N2CCCC(n3cccn3)C2)c1 (configuration not stated) ?
// result 4.57

// query Could you tell me which cytotoxicity at 70.5 h is on file for CCC(CC)CN1CCCn2nc(CNC(=O)COC)cc2C1 ?
// result -10.4

// query Could you tell me which cytotoxicity at 70.5 h is on file for O=C(NCc1ccccc1OCC1CC1)C1CCOC1 (configuration not stated) ?
// result 1.2

// query Could you tell me which cytotoxicity at 70.5 h is on file for CNC(=O)c1cccnc1NCCOc1ccccc1 ?
// result -0.952

// query Could you tell me which cytotoxicity at 70.5 h is on file for COc1ccc(CC(=O)N2CCCCC2Cn2cccn2)cc1OC (configuration not stated) ?
// result -2.2

// query Could you tell me which cytotoxicity at 70.5 h is on file for CCOCC1CN(S(=O)(=O)C2CC2)Cc2cnn(C)c21 (configuration not stated) ?
// result 20

// query Could you tell me which cytotoxicity at 70.5 h is on file for Cn1ccc(C2CCCCN2C(=O)c2cccc(Cn3cccn3)c2)n1 (configuration not stated) ?
// result 8.89
